MEASURED_TARGET: human angiotensin 2 type 1 receptor (human) (UniProt P30556)
Sequence (P30556 whole entry): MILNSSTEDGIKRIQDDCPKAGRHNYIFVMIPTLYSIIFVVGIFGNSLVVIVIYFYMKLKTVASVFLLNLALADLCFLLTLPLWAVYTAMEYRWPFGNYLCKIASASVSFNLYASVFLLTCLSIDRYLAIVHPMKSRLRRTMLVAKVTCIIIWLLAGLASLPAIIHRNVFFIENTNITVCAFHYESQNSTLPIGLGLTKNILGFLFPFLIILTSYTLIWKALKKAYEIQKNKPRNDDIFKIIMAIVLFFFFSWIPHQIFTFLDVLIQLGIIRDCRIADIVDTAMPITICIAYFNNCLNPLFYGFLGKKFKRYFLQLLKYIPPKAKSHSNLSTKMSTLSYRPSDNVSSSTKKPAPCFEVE
ASSAY_NOTES: cell-based or functional assay

BINDER: RVYIHPRVYIHPRVYIHP (cyclic) [SEQ ID NO: 36 (Cyclo(Arg-Val-Tyr-Ile-His-Pro-Arg-Val-Tyr-Ile-His-Pro-Arg-Val-Tyr-Ile-His-Pro))]
IP One EC50: > 10 µM
--
BINDER: ARVYVHPA (N-methyl residue; C-terminal acid) [SEQ ID NO: 33 (NMAla-Arg-Val-Tyr-Val-His-Pro-Ala-OH)]
IP One EC50: > 10 µM
--
BINDER: VYIHPF (cyclic) [SEQ ID NO: 38 (Cyclo(Val-Tyr-Ile-His-Pro-Phe))]
IP One EC50: > 10 µM
